# assayed system: MDM2 (Homo sapiens, UniProt Q00987)
# Sequence (Q00987 whole entry): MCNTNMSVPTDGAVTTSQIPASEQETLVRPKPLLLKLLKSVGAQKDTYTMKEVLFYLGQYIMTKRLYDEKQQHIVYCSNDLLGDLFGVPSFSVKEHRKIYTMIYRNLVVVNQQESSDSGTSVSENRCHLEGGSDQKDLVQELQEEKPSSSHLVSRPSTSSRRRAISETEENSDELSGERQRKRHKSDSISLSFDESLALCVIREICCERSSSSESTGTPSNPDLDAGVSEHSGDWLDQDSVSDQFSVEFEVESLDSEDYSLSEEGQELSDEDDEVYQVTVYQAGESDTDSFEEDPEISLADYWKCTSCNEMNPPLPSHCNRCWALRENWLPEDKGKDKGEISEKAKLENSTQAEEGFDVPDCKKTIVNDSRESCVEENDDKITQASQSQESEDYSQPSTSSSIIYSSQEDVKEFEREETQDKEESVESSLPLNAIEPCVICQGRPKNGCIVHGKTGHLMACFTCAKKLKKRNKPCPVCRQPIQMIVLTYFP
# assay name: MDM2 binding screen: displacement of fluorescent p53 peptide probe FP53 (fluorescence polarization)
# details: Acid 14; initial screen; crude macrocycle reactions
Numbered stars: 1 amine (or outer) side, 2 acyl side, 3 side chain; on linkers, the order of the positions; unused ones are H or OH. Bridge positions count the residues as written; N and C are the ends. Square brackets hold non-standard residues; d marks the D form. Peptide text beside a SMILES is read from it. * marks the point of attachment. Pro(4S-NHCO(5-Cl-2-thienyl)) = O=C(N[C@@H]1CN[C@H](C(=O)O)C1)c1ccc(Cl)s1; 2Thenoyl(5-Cl) = O=C(c1ccc(Cl)s1)*; Cysteamide = C(CS[*:3])N[*:1]; Api = NC1(C(=O)O)CCNCC1; Mpa = O=C(O)CCS
endpoint name: fraction fluorescent probe displaced, Screen

Sample records with fraction fluorescent probe displaced, Screen:
compound	assayed system	quantitative result
O=C1CCSSCCNC(=O)[C@H](Cc2ccccc2)NC(=O)C2(CCN(C(=O)c3ccc(Cl)s3)CC2)NC(=O)CCN1	MDM2 (Homo sapiens, UniProt Q00987)	0.13
O=C(N[C@H]1C[C@H]2C(=O)N[C@@H](Cc3c[nH]c4ccccc34)C(=O)N3CCC[C@H]3C(=O)NCCSSCCC(=O)N2C1)c1ccc(Cl)s1 [X D5 W B1 Acid 14] ([Mpa][Pro(4S-NHCO(5-Cl-2-thienyl))]WP-Cysteamide; disulfide 1-C)	MDM2 (Homo sapiens, UniProt Q00987)	0.23
O=C1CCSSCCNC(=O)[C@H]2CCCN(C2)C(=O)[C@H](Cc2c[nH]c3ccccc23)NC(=O)[C@H](CNC(=O)c2ccc(Cl)s2)N1	MDM2 (Homo sapiens, UniProt Q00987)	0.20
O=C1CCSSCCNC(=O)[C@@H]2CCCN2C(=O)C2(CCN(C(=O)c3ccc(Cl)s3)CC2)NC(=O)[C@H](Cc2c[nH]c3ccccc23)N1 [X W D6 B1 Acid 14] ([Mpa]W[Api](2Thenoyl(5-Cl))P-Cysteamide; disulfide 1-C)	MDM2 (Homo sapiens, UniProt Q00987)	0.14

I: O=C1CCNC(=O)C(Cc2ccccc2)NC(=O)C2CC(NC(=O)c3ccc(Cl)s3)CN2C(=O)CCSSCCN1 (centres unmarked)
II: O=C1CCSSCCNC(=O)C2(CCN(C(=O)c3ccc(Cl)s3)CC2)NC(=O)CCNC(=O)[C@H](Cc2c[nH]c3ccccc23)N1
III: O=C1CCSSCCNC(=O)[C@@H]2CCCN2C(=O)[C@@H]2C[C@H](NC(=O)c3ccc(Cl)s3)CN2C(=O)[C@H](Cc2ccccc2)N1 [X F D5 B1 Acid 14] ([Mpa]F[Pro(4S-NHCO(5-Cl-2-thienyl))]P-Cysteamide; disulfide 1-C)
IV: O=C1NCCSSCCC(=O)N2CCN(C(=O)c3ccc(Cl)s3)CC2C(=O)N2CCCC2C(=O)NC1Cc1c[nH]c2ccccc12 (centres unmarked)
Req: Could you please order the items by fraction fluorescent probe displaced, Screen, going from the lowest number to the highest? Response format: the labels, sorted as the prompt asks.
Resp: IV, I, III, II

a: O=C1CCSSCCNC(=O)C2(CCN(C(=O)c3ccc(Cl)s3)CC2)NC(=O)CCNC(=O)C(Cc2ccccc2)N1 (centres unmarked)
b: O=C1CCSSCCNC(=O)C2CN(C(=O)c3ccc(Cl)s3)CCN2C(=O)CCNC(=O)C(Cc2c[nH]c3ccccc23)N1 (mixture of isomers)
Req: For the pair a and b , which member has the lower fraction fluorescent probe displaced, Screen number? Indicate which entry you chose by stating its label.
Resp: b

---

# assayed system: MDM2 (Homo sapiens, UniProt Q00987)
# assay name: MDM2 binding screen of Libraries 3 and 4: displacement of fluorescent probe F-M8 at 750 nM macrocycle
# details: Panel c, Library 4: best nine scaffolds and 15 additional carboxylic acids; displacement of fluorescent probe
endpoint name: fraction of fluorescent probe displaced

compound	fraction of fluorescent probe displaced
O=C(C=Cc1cccc(C(F)(F)F)c1)NCC1NC(=O)C2CN(CCO2)C(=O)CCSSCCNC(=O)C(Cc2c[nH]c3ccccc23)NC1=O (stereo not drawn)	0.118
O=C(/C=C/c1cccc(C(F)(F)F)c1)NC[C@@H]1NC(=O)[C@H]2CCCN(C2)C(=O)CCSSCCNC(=O)[C@H](Cc2cccc3ccccc23)NC1=O	0.0035
Cn1cc(C[C@@H]2NC(=O)[C@H](CNC(=O)/C=C/c3ccc(F)cc3)NC(=O)[C@H]3CCCN(C3)C(=O)CCSSCCNC2=O)c2ccccc21	0.052
CC(C)c1ccc(/C=C/C(=O)NC[C@@H]2NC(=O)C3(CC3)CNC(=O)CCSSCCNC(=O)[C@H](Cc3c[nH]c4ccccc34)NC2=O)cc1	0.028
Cn1cc(C[C@@H]2NC(=O)[C@H](CNC(=O)/C=C/c3cccc(Cl)c3)NC(=O)[C@H]3CCCN(C3)C(=O)CCSSCCNC2=O)c2ccccc21	0.118
O=C1CCSSCCNC(=O)[C@H](Cc2c[nH]c3ccccc23)NC(=O)[C@H](CNC(=O)c2cnc3ccccc3n2)NC(=O)C2(CC2)CN1	0.0035
O=C(NC[C@@H]1NC(=O)[C@H]2CCCN(C2)C(=O)CCSSCCNC(=O)[C@H](Cc2ccc3ccccc3c2)NC1=O)c1cnc2ccccc2n1	0.0035

A: O=C(O)c1cnc2ccccc2n1
B: CCOc1ccc(/C=C/C(=O)NC[C@@H]2NC(=O)[C@H]3CCCN(C3)C(=O)CCSSCCNC(=O)[C@H](Cc3c[nH]c4cc(Cl)ccc34)NC2=O)cc1
C: CCCOc1ccc(/C=C/C(=O)NC[C@@H]2NC(=O)C3(CC3)CNC(=O)CCSSCCNC(=O)[C@H](Cc3c[nH]c4ccccc34)NC2=O)cc1
D: O=C(O)/C=C/c1ccc(Cl)c(Cl)c1
E: CCCOc1ccc(C=CC(=O)NCC2NC(=O)C3CN(CCO3)C(=O)CCSSCCNC(=O)C(Cc3cn(C)c4ccccc34)NC2=O)cc1 (stereo not drawn)
Req: Hello, I need these entries ordered by fraction of fluorescent probe displaced, highest reading first. Thanks! Response format: the labels, sorted as the prompt asks.
Resp: B, C, E, D, A

---

# assayed system: MDM2 (Homo sapiens, UniProt Q00987)
# assay name: MDM2 binding screen: displacement of fluorescent p53 peptide probe FP53 (fluorescence polarization)
# details: Acid 91; initial screen; crude macrocycle reactions
Numbered stars: 1 amine (or outer) side, 2 acyl side, 3 side chain; on linkers, the order of the positions; unused ones are H or OH. Bridge positions count the residues as written; N and C are the ends. Square brackets hold non-standard residues; d marks the D form. Peptide text beside a SMILES is read from it. * marks the point of attachment. Cysteamide = C(CS[*:3])N[*:1]; X1 = O=C(/C=C/c1ccccc1)*; Dap = NC[C@H](N)C(=O)O; Mpa = O=C(O)CCS
endpoint name: fraction fluorescent probe displaced, Screen

Sample records with fraction fluorescent probe displaced, Screen:
compound	quantitative result
O=C1CCSSCCNC(=O)C2(CCN(C(=O)/C=C/c3ccccc3)CC2)NC(=O)[C@H](Cc2c[nH]c3ccccc23)NC(=O)c2cccc(c2)CN1	0.16
O=C1CCSSCCNC(=O)C2CN(C(=O)C=Cc3ccccc3)CCN2C(=O)C(Cc2ccccc2)NC(=O)c2cccc(c2)CN1 (centres unmarked)	-0.05
O=C1CCSSCCNC(=O)C(Cc2ccccc2)NC(=O)C2CN(C(=O)C=Cc3ccccc3)CCN2C(=O)c2cccc(c2)CN1 (mixture of isomers)	-0.10

I: O=C1NC(Cc2c[nH]c3ccccc23)C(=O)NCCSSCCC(=O)N2CCN(C(=O)C=Cc3ccccc3)CC2C(=O)N2CCCC1C2 (centres unmarked)
II: O=C1CCSSCCNC(=O)C(Cc2ccccc2)NC(=O)C2(CCN(C(=O)C=Cc3ccccc3)CC2)NC(=O)c2cccc(c2)CN1 (centres unmarked)
III: O=C(/C=C/c1ccccc1)NC[C@@H]1NC(=O)CCSSCCNC(=O)[C@@H]2CCCN2C(=O)[C@H](Cc2ccccc2)NC1=O [X D3 F B1 Acid 91] ([Mpa][Dap](X1)FP-Cysteamide; disulfide 1-C)
Req: Hello, I need these entries ordered by fraction fluorescent probe displaced, Screen, highest reading first. Thanks! Response format: the labels, sorted as the prompt asks.
Resp: I, III, II
(I: 0.08, III: -0.05, II: -0.10)

I: O=C(/C=C/c1ccccc1)NC[C@@H]1NC(=O)CCSSCCNC(=O)[C@H](Cc2ccccc2)NC(=O)c2cccc(c2)CNC1=O
II: O=C1CCSSCCNC(=O)C2CN(C(=O)C=Cc3ccccc3)CCN2C(=O)CCNC(=O)C(Cc2ccccc2)N1 (centres unmarked)
III: O=C(C=Cc1ccccc1)NC1CC2C(=O)NCCSSCCC(=O)NCCC(=O)NC(Cc3ccccc3)C(=O)N2C1 (centres unmarked)
IV: O=C(/C=C/c1ccccc1)NC[C@@H]1NC(=O)CCNC(=O)CCSSCCNC(=O)[C@H](Cc2c[nH]c3ccccc23)NC1=O
Req: Hello, I need these entries ordered by fraction fluorescent probe displaced, Screen, highest reading first. Thanks! Response format: the labels, sorted as the prompt asks.
Resp: IV, II, III, I

P: O=C(C=Cc1ccccc1)NCC1NC(=O)c2cccc(c2)CNC(=O)CCSSCCNC(=O)C(Cc2c[nH]c3ccccc23)NC1=O (centres unmarked)
Q: O=C1NC(Cc2ccccc2)C(=O)N2CCN(C(=O)C=Cc3ccccc3)CC2C(=O)NCCSSCCC(=O)N2CCCC1C2 (centres unmarked)
Req: For the pair P and Q , which member has the lower fraction fluorescent probe displaced, Screen number? Indicate which entry you chose by stating its label.
Resp: Q
